Tested on: HIV long terminal repeat (LTR) promotor
Assay: Inhibition of reporter gene (alkaline phosphatase) expression directed by HIV-LTR promotor in 293-EBNA cells
Type: cell-based
Settings: Human immunodeficiency virus 1; reporter gene directed by HIV-LTR promotor in 293-EBNA cells; FIGS. 17, 19, 21
Protocol: This example is an assay used to measure anti-viral activity of inventive compounds nos. […] This assay is predictive of anti-viral activity for retroviruses. […] The expression of the alkaline phosphatase (AP) reporter gene in the individual cultures was then measured by following the change in absorbance at A405 of cell conditioned media in the presence of a suitable substrate (e.g., ortho-nitrophenol phosphate). […]
OBSERVABLE: IC50

| COMPOUND STRING | OBSERVED |
| --- | --- |
| CCCCCCCCCCCCCCCNCCCCCCCCCCCn1c(=O)c2c(ncn2C)n(C)c1=O | < 10 µM |
| CCCCCCCCCCNCCCCCCCCCCCn1c(=O)c2c(ncn2C)n(C)c1=O | < 5 µM |
| CCCCCCCCCCCCNCCCCCCCCCCCn1c(=O)c2c(ncn2C)n(C)c1=O | < 4 µM |
| CCCCCCCCCCCCCCNCCCCCCCCCCCn1c(=O)c2c(ncn2C)n(C)c1=O | < 5 µM |
